Molecular target: Induced myeloid leukemia cell differentiation protein Mcl-1 (Homo sapiens) (UniProt Q07820)
Sequence (Q07820 whole entry, looked up): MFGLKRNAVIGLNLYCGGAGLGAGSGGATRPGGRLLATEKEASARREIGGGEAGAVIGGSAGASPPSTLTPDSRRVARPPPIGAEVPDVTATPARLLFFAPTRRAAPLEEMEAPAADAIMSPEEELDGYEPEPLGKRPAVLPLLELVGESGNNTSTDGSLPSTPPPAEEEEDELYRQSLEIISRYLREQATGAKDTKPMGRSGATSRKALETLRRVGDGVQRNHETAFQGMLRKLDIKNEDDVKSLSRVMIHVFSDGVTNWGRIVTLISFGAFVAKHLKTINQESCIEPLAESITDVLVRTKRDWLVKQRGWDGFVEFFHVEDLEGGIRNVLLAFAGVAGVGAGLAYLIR
Experiment: Mcl-1/Noxa binding inhibitors, primary screen, biochemical, TR-FRET, 1536-well (AID 1022);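 further: His-tagged Mcl-1 with rhodamine Noxa BH3 peptide and terbium anti-His antibody; 0% = Mcl-1 plus Noxa peptide wells and 100% = peptide-only wells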
Conditions: TR-FRET Mcl-1/Noxa peptide binding, 2 h; at 21.7 µM
In all, about 220,000 compounds went through this assay and about 3,300 (1.5%) were called active.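 How the source made its calls: active means compounds that cut the protein-peptide binding signal by more than 50% relative to plate controls in a single-dose test; inactive means the rest.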 What follows is part of a selection rich in actives, with near analogues and random picks from the rest.
Pick one: 1 for active, 0 for inactive

Solved entries:
* CCOc1cccc(=NC2CCCCC2)c2c(C)[nH]c(C)c12 | 0
* O=c1[nH]c(=O)n(CCc2ccccc2)c(O)c1/C=N/N1CCOCC1 | 0
* CCCCCCCCCCCCn1ccc(=N)cc1 | 0
* O=C(O)CCn1cc(C=C2C(=O)NC(=S)NC2=O)c(-c2cccc(Br)c2)n1 | 1
* Cc1c(C(=O)O)cccc1-n1c(C)cc(/C=C2\C(=O)NC(=O)N(c3ccc4c(c3)OCO4)C2=O)c1C | 0
* Cc1cc(/C=C2/C(=O)NC(=O)N(Cc3ccco3)C2=O)c(C)n1-c1ccc(C(=O)O)cc1 | 0
* O=C1NC(=O)N(Cc2ccco2)C(=O)/C1=C\c1cccn1CCOc1ccccc1 | 0
* O=C1NC(=O)N(Cc2ccco2)C(=O)/C1=C\c1ccc(-c2ccc(F)cc2)o1 | 1

Okay, next one:
Any idea what this test logged for COc1cccc(CN2CCCC(C(=O)c3ccccc3SC)C2)c1O (centres undefined) ?
0

Where these numbers come from: PubChem BioAssay AID1022
